Target: Muscarinic acetylcholine receptor
Assay: Dissociation constant of the drug-Muscarinic acetylcholine receptor complex.
Format: protein assay, Cavia porcellus
# label = Condition met if Kd < 2000 nM else Condition not met

Some solved entries appear below for comparison.
CC1CC(=O)N1CC#CCN1CCCC1 (configuration not stated); Condition met
CC1CC(=O)N(CC#CCN2CCCC2)C1 (configuration not stated); Condition not met
CC1CCC(=O)N1CC#CCN1CCCC1 (configuration not stated); Condition met

API: the following record is the query input.
Input: Kd under 2000 nM? Item: O=C1CCCN1CC#CCN1CCCC1 [OXOTREMORINE]
Output: Condition met

---

Target: Muscarinic acetylcholine receptor
Assay: In vitro inhibition of binding of (-)-[3H]-NMS to Muscarinic acetylcholine receptor of rat cerebral cortex was determined
Assay type: tissue-based
value.kind: Ki (µM)
# unit: µM | format: bare number

A selection of reference data follows.
CC1CCC(=O)N1CC#CCN(C)C (stereo unspecified); 2.2
CC1CC(=O)N1CC#CC[N+](C)(C)C (stereo unspecified); 19.6
O=C1CCCN1CC#CCN1CCCC1; 0.83
CC1CC(=O)N1CC#CCN(C)C (stereo unspecified); 43
CC1CCN(CC#CCN2CCCC2)C1=O (stereo unspecified); 1.2

With those in mind, consider the next compound.
Input: Data request, read-out Ki, for CC1CC(=O)N(CC#CCN2CCCC2)C1 (stereo unspecified)
Output: 5

---

Biological target: Muscarinic acetylcholine receptor
Assay: Dissociation constant of the drug-Muscarinic acetylcholine receptor complex.
Format: protein assay, Cavia porcellus
Listed here are compounds together with their documented Kd.
Form entry: value (µM) — number only.

CC1CCC(=O)N1CC#CC[N+](C)(C)C (stereo not drawn); 1.7
CC1CCC(=O)N1CC#CCN(C)C (stereo not drawn); 4.3

Let's switch to this compound now.
Input: Which Kd reading was recorded for the compound CC1CCN(CC#CCN2CCCC2)C1=O (stereo not drawn) ?
Output: 11.5

---

log10 Ki values for the molecules below.
Target: Muscarinic acetylcholine receptor
Test: In vitro inhibition of binding of (-)-[3H]-NMS to Muscarinic acetylcholine receptor of rat cerebral cortex was determined
Format: tissue-based
# log10 transformed; quantity=Ki; unit=µM

CC1CCC(=O)N1CC#CC[N+](C)(C)C (stereo not given); -0.21

Input: Give its log10 Ki value. Item: CC1CC(=O)N1CC#CCN1CCCC1 (stereo not given)
Output: 0.00

Input: Try this molecule next: O=C1CCN1CC#CCN1CCCC1
Output: -0.03

Input: Let us now turn to CC1CCC(=O)N1CC#CCN1CCCC1 (stereo not given)
Output: -1.25

Input: Queued: CC1CN(CC#CCN2CCCC2)C1=O (stereo not given)
Output: 0.75

Source listed as ChEMBL document CHEMBL1125046.
